Let's look at some compounds and their measured growth.
Test system: COLO 205 colon
Assay: NCI-60 one-dose screen, 48 h (100 = growth as untreated, 0 = no growth, -100 = all killed)
Details: 10 µM unless noted
About 83,000 compounds went through this panel and 20% of them were active in at least one assay; those are over-represented in the sample as a whole. Activity calls are given as the source filed them. The calls were made as follows: active = growth percent below 10; inactive = the rest.
Experimental readout: growth

COc1ccc(-c2nn(-c3cccc(Cl)c3)cc2C2CC(c3ccccc3)=NN2C(C)=O)cc1 (stereo not given) ... 81.6% (inactive)
CCCCCCOc1ccc(/C=N/NC(N)=S)cc1 ... 50.2% (inactive)
O=c1[nH]c(=O)n(C2CC(O)C(CO)O2)cc1C(F)(F)F (stereo not given) ... 69.2% (inactive)
Cc1c(N(C)CS(=O)(=O)O)c(=O)n(-c2ccccc2)n1C ... 115% (inactive)
CC1(C)OC(=O)C(=Cc2ccccc2Br)C(=O)O1 ... 109% (inactive)
